target: Adrenergic receptor alpha-1 (Rattus norvegicus) (UniProt P15823+P23944+P43140); assay: Displacement of [3H]-prazosin from adrenergic alpha1 in rat cerebral cortex at 10 uM relative to control; format: tissue-based
MEASURED ENDPOINT: inhibition

# count of solved cases: 3
C[C@H]1CN(CC[C@H]2CC[C@H](NC(=O)N3CCCC3)CC2)CCc2ccc(Cl)cc21    60.3%
C[C@H]1CN(CC[C@H]2CC[C@H](NC(=O)[C@@H]3CCCN3)CC2)CCc2ccc(Cl)cc21    75.8%
CCN(C)C(=O)N[C@H]1CC[C@H](CCN2CCc3ccc(Cl)cc3[C@@H](C)C2)CC1    43.5%

IN: For C[C@H]1CN(CC[C@H]2CC[C@H](NC(=O)N(C)c3ccccc3)CC2)CCc2ccc(Cl)cc21 , what is its reported inhibition?
OUT: 38.6%
